- Tested on: M14 melanoma
- ASSAY_DETAILS: NCI-60 one-dose screen, 48 h
- CONDITION_DETAILS: 10 µM unless noted
Compounds without any hit were thinned out: in the full panel of roughly 83,000, 20% have a hit. Active and inactive are the calls of the source. How the source made its calls: active means growth percent below 10; inactive means the rest.
Would you mind answering with one of these outcomes? active, inactive

Worked examples follow.
{"MOLECULE": "Cn1c(SCC(=O)Nc2ccc(-c3nc4ccc([N+](=O)[O-])cc4[nH]3)cc2)nc2ccccc2c1=O", "CATEGORY": "inactive"}
{"MOLECULE": "Cc1[nH]nc2ncc(C#Cc3cncc(C(=O)Nc4ccc(CN5CCN(C)CC5)c(C(F)(F)F)c4)c3)cc12", "CATEGORY": "active"}
{"MOLECULE": "COc1cc(OC)c(S(=O)(=O)NNC(=O)c2ccncc2)cc1C(=O)/C=C/c1ccc(C)cc1", "CATEGORY": "inactive"}
{"MOLECULE": "O=C1C2=C(C(=O)c3c(O)cccc31)C(c1ccco1)c1sc(=O)[nH]c1S2 (stereo not drawn)", "CATEGORY": "active"}
{"MOLECULE": "Clc1ccc2c(NCCCN3CCOCC3)c3oc4ccc(Cl)cc4c3nc2c1", "CATEGORY": "inactive"}
{"MOLECULE": "COc1cccc(OC)c1-c1nnn(C)c1C(=S)N1CCN(c2ccc([N+](=O)[O-])cc2Cl)CC1", "CATEGORY": "inactive"}
{"MOLECULE": "COc1ccc(-c2csc(N/N=C/c3c(-c4ccc(S(C)(=O)=O)cc4)nc4ccccn34)n2)cc1", "CATEGORY": "inactive"}

Consider the additional molecule presented here.
Look up the recorded call for Nc1nc(N)c2c(n1)NC(c1ccc(F)cc1)CC(c1ccc(Nc3nc(NCCO)nc(Nc4ccc(Cl)cc4)n3)cc1)=N2 (stereo not drawn) in this test.
active
